These data points were gathered from the DeepSol protein solubility set.

Experiment: soluble on expression in E. coli; label from the status in PepcDB or PDB records
measured.property: soluble on expression in E. coli

MGSDKIHHHHHHMFAKFVQRHGAARKAADKTIRAQAGALYAALKDPPGPPHAPASAEHREHQEQDAKEQTMYNDSKHGFDVAQTEYEAFMLEPHDWVPNNRKLPVVIYRRALMPASGDLAAAFEILFERNAWPPQWRDGIFDYHHFHATAHEILGVTDGSAQVIVGGPGGRVVTLCAGDALLLPAGTGHCLQSFARHFQVVAGYPEGQQWDIRREALTPDELASMEALPFPSLDPIDGKHGPLVEHWLHAA | not soluble
MSLKFHSPYLPLIKLIIVVKTPLELITDNLLPTIKVLIAKKLRELGMSQNRIAILLGVTQPAVKQYLDEDENFQYEKLRELGLKDEEIEDITQDLVNILNKNDTKSAMYYITDIGLRYLSELKFCKFHKENDKYIPQDCDICRYIYRQNEEERMEIALSMLQNEFVTPLIPEVLSNLAFARKNPKGINDVLAVEGRITKVKGIPTPASNPSWGSSKHLATILLKIMQKDPSIRSIMNIKYDKKIDEALHFLNFRIVYVGPSDENDDESISNLIYSAFYSGIDCVVHLGGKGLEPITYVLGKDPVEVVKKVIEIGKKYRELTENEGHHHHHH | soluble
MAIGKKVSKKTPLLLAADSHKNAAKMPCFLLQAHRIANTVIAGWHGQRKRGNGENFWQFRPYVEGESITRIDWRRSARDGHTYLREHEWEKTQTVWIWPDQSASMHYCSCFSQTSKDNYAIILALTLATLLARSGENIAIPTLMPPTMAPNVVERMALALVNRHTENPFPDFSTITRFSHVIIMSDFLDSPEKIIQNLTVLSAKQITVHLIEVADPAEEHFPYAGHTEFFDPETKEKRILGKAENSREHYCKLYQARRQELTNFCTRQGWTYHVSKTDRPLTEVILRLANKIGISPSHNRRSL | not soluble
SSLYRLFQSSKRPFASFSAPLVRFTNSRCVSAVLSRKETAPSSIYGNRVSRVSGFGALDIRSLNFSTKSSQINDAGSIDQTLMQSMELKIKEQLNAESVTVTDMSGDGRHVCINVVSSAFEGQSAVNRQRMVYKAIWEELQNVVHAVDQMTTKTPSEV | soluble

Here is the next item to consider.
The value of soluble on expression in E. coli measured for the sequence MTAALHIGHLSKSFQNTPVLNDISLSLDPGEILFIIGASGCGKTTLLRCLAGFEQPDSGEISLSGKTIFSKNTNLPVRERRLGYLVQEGVLFPHLTVYRNIAYGLGNGKGRTAQERQRIEAMLELTGISELAGRYPHELSGGQQQRAALARALAPDPELILLDEPFSALDEQLRRQIREDMIAALRANGKSAVFVSHDREEALQYADRIAVMKQGRILQTASPHELYRQPADLDAALFIGEGIVFPAALNADGTADCRLGRLPVQSGAPAGTRGTLLIRPEQYSLHPHSAPAASIHAVVLKTTPKARHTEISLRAGQTVLTLNLPSAPTLSDGISAVLHLDGPALFFPGNTLEHHHHHH turned out to be soluble
